# Test system: TO-3-N3 (biotin conjugate)
# Measurement Description: pull-down binding Z-score (relative to library population); higher = stronger binding
# Condition Summary: RNA library: Library-2
# pull-down binding Z-score >= 0.8 gives Criterion met, anything below gives Criterion not met

Identify whether the reported pull-down binding Z-score of the following sequence is 0.8 or greater: CCCUCAUAUGGCAGUUGGCGAGGGCCCAGUGAG [hsa-mir-6769a]
Criterion met

Identify whether the reported pull-down binding Z-score of the following sequence is 0.8 or greater: GUGCCACUCCAUGGCAC
Criterion not met

Identify whether the reported pull-down binding Z-score of the following sequence is 0.8 or greater: AAGUGCCGUCCUCAUGAGCCCCU [hsa-mir-6769b]
Criterion not met

Identify whether the reported pull-down binding Z-score of the following sequence is 0.8 or greater: UGUGGACAAGGGCCUUGUCUUAGACAGUCACU [hsa-mir-4318]
Criterion not met
